Reference for the values: paper PMC6889545

measurement-notes: Plasma pharmacokinetics of the peptides after a single dose
Type: in vivo
measurement-parameters: mouse; 8-week-old male CD1 mice, single intravenous dose 12.5 mg/kg, plasma 0-24 h, LC-MS/MS, WinNonlin 6.1
Non-standard residues stand in square brackets, D forms with d. Residues, ends and D or L forms follow the SMILES beside them.
parameter-measured: C0 (µg/mL)
# output: bare number, implied unit µg/mL

Prompt: Quickly give me recorded C0 for CC(C)C[C@H](NC(=O)[C@@H](NC(=O)[C@H](Cc1c[nH]c2ccccc12)NC(=O)[C@@H]1CCCN1C(=O)[C@H](CC(N)=O)NC(=O)[C@H](Cc1c[nH]cn1)NC(=O)[C@@H]1CCCN1C(=O)[C@H](CC(C)C)NC(=O)[C@H]1CCCN1)C(C)C)C(=O)N[C@@H](C)C(=O)N[C@@H](C)C(=O)N[C@H](Cc1c[nH]c2ccccc12)C(=O)O [PLP peptide, reference compound] (H-[dP]LPHNPWVLAA[dW]-OH)
Completion: 85.4

Prompt: Fill in reported C0 for this entry: CC(C)C[C@H](NC(=O)[C@H](CC(N)=O)NC(=O)[C@@H]1CCCN1C(=O)[C@@H]1CCCN1C(=O)[C@H](Cc1c[nH]c2ccccc12)NC(=O)[C@H](CC(C)C)NC(=O)[C@@H](C)N)C(=O)N[C@@H](Cc1c[nH]cn1)C(=O)N[C@@H](C)C(=O)N[C@@H](Cc1c[nH]c2ccccc12)C(=O)N[C@H](C(=O)N1CCC[C@@H]1C(=O)O)C(C)C [ALW peptide] (H-[dA]LWPPNLHAWV[dP]-OH)
Completion: 3.64
